EXPERIMENT: chemical genetic growth profiling, strain panel (AID 1159580);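 further: tested at 20 µM; growth read once vehicle control cultures reached saturation at 30 °C; 1 = growth at the plate median or of vehicle wells; lower values mean less growth of the strain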
TEST_CONDITIONS: S. cerevisiae deletion strains, growth OD, locus YNL128W, strain TEP1, active compounds read low
The campaign covered roughly 5,500 compounds. About 2,000 (36%) were called active. Inconclusive results (about 18%) are left out. Some of the results follow.
METRIC: normalized growth
Respond with the number and no other words.

[in] Looking for the measured normalized growth of COc1cc(C(O)C(=O)O)ccc1O (stereo not drawn) , can you help?
[out] 0.986

[in] Okay, and Cc1cc(NC(=O)C(Cl)(Cl)Cl)n(-c2ccccc2)n1 ?
[out] 0.975

[in] Okay, and COc1ccc(C(=O)c2ccccc2O)c(O)c1 ?
[out] 0.948

[in] Okay, and OCC(O)Cc1ccc2c(c1)OCO2 (stereo not drawn) ?
[out] 1.02

[in] Okay, and CCC1(c2ccc(N)cc2)CCC(=O)NC1=O (stereo not drawn) ?
[out] 1.01

[in] Okay, and Nc1nc2[nH]c(=O)c(=O)[nH]c2c(=O)[nH]1 ?
[out] 1.05

[in] Okay, and COc1ccc(CC2c3cc(OC)c(OC)cc3CCN2C)cc1OC (stereo not drawn) ?
[out] 0.945

[in] Okay, and CCCN1CCC[C@@H]2Cc3nc(N)ncc3C[C@H]21 ?
[out] 1.01

[in] Okay, and CCC1(C)CC(=O)NC1=O (stereo not drawn) ?
[out] 1.04

[in] Okay, and COC1C(O)C(O)C(O)[C@@H](O)C1O (stereo partly drawn) ?
[out] 1.03

[in] Okay, and COc1ccc(C(=O)c2ccccc2)c(O)c1 ?
[out] 0.934

[in] Okay, and NC/C=C/C(=O)O ?
[out] 0.988

[in] Okay, and COC(=O)c1cc(OC)c(OC)c(OC)c1NS(=O)(=O)c1cc(OC)ccc1OC ?
[out] 1

---

EXPERIMENT: chemical genetic growth profiling, strain panel (AID 1159580)
TEST_CONDITIONS: S. cerevisiae deletion strains, growth OD, locus YLR320W, strain mms22, active compounds read low
The whole screen tested about 5,500 compounds, of which about 2,000 (36%) were called active. About 18% were inconclusive and are not listed. This is one part of the list.
METRIC: normalized growth
Respond with the number and no other words.

[in] Looking for the measured normalized growth of C/C=C(/C(=C/C)c1ccc(O)cc1)c1ccc(O)cc1 , can you help?
[out] 0.978

[in] Okay, and C[C@@H]1O[C@@H](O[C@H]2[C@@H](Oc3cc(O)c4c(c3)O[C@H](c3ccc(O)cc3)CC4=O)O[C@H](CO)[C@@H](O)[C@@H]2O)[C@H](O)[C@H](O)[C@H]1O ?
[out] 0.969

[in] Okay, and O=C(/C=C/C=C/c1ccc2c(c1)OCO2)N1CCCCC1 ?
[out] 0.808

[in] Okay, and c1ccc(CN(CC2=NCCN2)c2ccccc2)cc1 ?
[out] 0.982

[in] Okay, and CC[C@@H](CO)NCCN[C@@H](CC)CO ?
[out] 1.07

[in] Okay, and S=C=NCc1ccccc1 ?
[out] 0.126

[in] Okay, and c1ccc(CC2=NCCN2)cc1 ?
[out] 0.989

[in] Okay, and O=C1CC(c2ccc(O)c(O)c2)Oc2cc(O)cc(O)c21 (configuration not stated) ?
[out] 0.98

[in] Okay, and CC(=O)CC(=O)CCC(=O)O ?
[out] 1.03

[in] Okay, and COc1ccc([C@@H]2CC(=O)c3c(O)cc(O)cc3O2)cc1O ?
[out] 0.93

[in] Okay, and Cc1ccc(O)cc1 ?
[out] 1.02

[in] Okay, and CC(C)[N+](C)(CCOC(=O)C1c2ccccc2Oc2ccccc21)C(C)C ?
[out] 0.985

---

EXPERIMENT: chemical genetic growth profiling, strain panel (AID 1159580);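 further: tested at 20 µM; growth read once vehicle control cultures reached saturation at 30 °C; 1 = growth at the plate median or of vehicle wells; lower values mean less growth of the strain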
TEST_CONDITIONS: S. cerevisiae deletion strains, growth OD, locus YDR159W, strain sac3
Among all 5,500 compounds or so, about 2,000 (36%) were called active. Not shown: some 18% with an inconclusive outcome. Rule as the data show it: active = normalized growth mostly below about 0.91 (no sharp cut-off); inconclusive = no clear call, values can overlap the other calls; inactive = mostly above about 0.92. This is one part of the list.
Outcome (select one): active, inactive

[in] Test call, this compound: C=CC1=C(C(=O)O)N2C(=O)[C@@H](NC(=O)/C(=N/O)c3csc(N)n3)[C@H]2SC1
[out] inactive

[in] Okay, and C1CCc2nnnn2CC1 ?
[out] inactive

[in] Okay, and CCCCCCCCCCCCC[N+](C)(C)Cc1ccccc1 ?
[out] active

[in] Okay, and c1ccc(CC2=NCCN2)cc1 ?
[out] inactive

[in] Okay, and OCC(O)Cc1ccc2c(c1)OCO2 (stereo unspecified) ?
[out] inactive

[in] Okay, and C/C=C(/C(=C/C)c1ccc(O)cc1)c1ccc(O)cc1 ?
[out] inactive

[in] Okay, and Cc1cc(OC(=O)N2CCCCC2)c(C(C)C)cc1[N+](C)(C)C ?
[out] inactive

[in] Okay, and CC(C)[C@H](N)C(=O)OCCOCn1cnc2c(=O)[nH]c(N)nc21 ?
[out] inactive

[in] Okay, and CCC(C(=O)O)c1ccccc1 (stereo unspecified) ?
[out] inactive

[in] Okay, and COc1c(O)cc2oc3cc(O)c(CC=C(C)C)c(O)c3c(=O)c2c1CC=C(C)C ?
[out] active

[in] Okay, and CC(C)N(C(=O)CCl)c1ccccc1 ?
[out] inactive

[in] Okay, and NC(N)=Nc1nc(CSCCC(N)=NS(N)(=O)=O)cs1 ?
[out] inactive

[in] Okay, and CN1C2CC3C[C@H]1C(O3)C2O (stereo partly specified) ?
[out] inactive

[in] Okay, and Cc1c(N(C)C)c(=O)n(-c2ccccc2)n1C ?
[out] inactive

[in] Okay, and CC(C)(CO)C(O)C(=O)NCCCO (stereo unspecified) ?
[out] inactive

[in] Okay, and O=C(O)c1ccccc1OP(=O)(O)O ?
[out] inactive

[in] Okay, and C[CH2][Hg][S]c1ccccc1C(=O)O ?
[out] active

[in] Okay, and CN=C(NC#N)NCCSCc1nc[nH]c1C ?
[out] inactive

[in] Okay, and S=C=NCc1ccccc1 ?
[out] active

[in] Okay, and Cc1ccc(O)cc1 ?
[out] inactive

[in] Okay, and OCc1ccccc1O[C@@H]1O[C@H](CO)[C@@H](O)[C@H](O)[C@H]1O ?
[out] inactive

[in] Okay, and N#Cc1c(Cl)c(Cl)c(Cl)c(C#N)c1Cl ?
[out] active

[in] Okay, and COc1ccc(-c2cc(=O)c3c(O)cc(OC)c(OC)c3o2)c(OC)c1 ?
[out] inactive

[in] Okay, and CC(C)(C)CC(C)(C)c1ccc(OCCOCC[N+](C)(C)Cc2ccccc2)cc1 ?
[out] active

[in] Okay, and CC(=O)OC1CC23CC24CCC(OC2OCC(O)C(O)C2O)C(C)(C)C4CCC3C2(C)CC3OC4(CC(C)C3C12C)OC(O)C1(C)OC41 (stereo unspecified) ?
[out] inactive

[in] Okay, and N=c1nc(N2CCCCC2)cc(N)n1O ?
[out] inactive

---

EXPERIMENT: chemical genetic growth profiling, strain panel (AID 1159580);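 further: tested at 20 µM; growth read once vehicle control cultures reached saturation at 30 °C; 1 = growth at the plate median or of vehicle wells; lower values mean less growth of the strain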
TEST_CONDITIONS: S. cerevisiae deletion strains, growth OD, locus YJL166W, strain qcr8, active compounds read low
The whole screen tested about 5,500 compounds, of which about 2,000 (36%) were called active. Roughly 18% stayed inconclusive and do not appear here. The list shows a part of the results.
Can you tell me normalized growth for the items I'm about to list?
Respond with the number and no other words.

[in] Looking for the measured normalized growth of C[N+](C)(C)CCOP(=O)([O-])OP(=O)(O)OC[C@H]1OC(n2ccc(N)nc2=O)[C@H](O)[C@@H]1O (stereo not given in full) , can you help?
[out] 0.963

[in] Okay, and O=C(/C=C/C=C/c1ccc2c(c1)OCO2)N1CCCCC1 ?
[out] 0.93

[in] Okay, and S=C=NCc1ccccc1 ?
[out] 0.0848

[in] Okay, and CCCCCCCC/C=C/CCCCCCCCOP(=O)([O-])OCC[N+](C)(C)C ?
[out] 0.0552

[in] Okay, and CN=C(NC#N)NCCSCc1nc(N=C(N)N)cs1 ?
[out] 0.987

---

EXPERIMENT: chemical genetic growth profiling, strain panel (AID 1159580);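 further: tested at 20 µM; growth read once vehicle control cultures reached saturation at 30 °C; 1 = growth at the plate median or of vehicle wells; lower values mean less growth of the strain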
TEST_CONDITIONS: S. cerevisiae deletion strains, growth OD, locus YCL029C, strain bik1, active compounds read low
The campaign covered roughly 5,500 compounds. About 2,000 (36%) were called active. About 18% were inconclusive and are not listed. The list shows a part of the results.
// returns not met unless normalized growth is strictly below 1, in which case met

[in] Lab log: compare recorded normalized growth with 1; is it strictly lower for O=C1C[C@@H](c2ccc(O)cc2)Oc2cc(O)cc(O)c21 ?
[out] not met

[in] Okay, and C=C(C)/C=C1/C=CC(=O)C(C)=C1 ?
[out] met

[in] Okay, and Nc1nc2[nH]c(=O)c(=O)[nH]c2c(=O)[nH]1 ?
[out] not met

[in] Okay, and CC(C)=CCc1c(O)cc(C)oc1=O ?
[out] met

[in] Okay, and CC(=O)OCC(CCn1cnc2cnc(N)nc21)COC(C)=O ?
[out] met

[in] Okay, and Oc1c(Cl)c(Cl)c(Cl)c(Cl)c1Cl ?
[out] met

[in] Okay, and O=C1C[C@@H](c2ccccc2)Oc2cc(O)cc(O)c21 ?
[out] met

[in] Okay, and O=C1CC(c2ccc(O)cc2)Oc2ccccc21 (stereo not drawn) ?
[out] met

[in] Okay, and COc1ccc2cc1Oc1ccc(cc1)C[C@H]1c3cc(c(OC)cc3CCN1C)Oc1c(OC)c(OC)cc3c1[C@H](C2)N(C)CC3 ?
[out] not met

[in] Okay, and COc1cccc2c1CCC1CC(=O)CCC21C (stereo not drawn) ?
[out] met

[in] Okay, and COc1c2c(c(CC=C(C)C)c3oc(=O)c(-c4ccc(O)cc4)c(O)c13)OC(C)(C)C=C2 ?
[out] met

[in] Okay, and COc1cc(OC)c2c(c1)OC(c1ccccc1)CC2=O (stereo not drawn) ?
[out] not met

[in] Okay, and O=C(O)C1C(O)CCC2CN3CCc4c([nH]c5ccccc45)C3CC21 (stereo not drawn) ?
[out] not met

[in] Okay, and COc1ccc2c(c1)OC[C@@H](Cc1ccc(OC)c(OC)c1)[C@H]2O ?
[out] met

[in] Okay, and COc1ccc(-c2coc3c(O)c(OC)ccc3c2=O)cc1 ?
[out] met

[in] Okay, and COc1ccc(-c2coc3c(OC)c(O)ccc3c2=O)cc1 ?
[out] met

[in] Okay, and COC(=O)C1[C@H]2C[C@H]3c4[nH]c5ccccc5c4CCN3C[C@@H]2CC[C@@H]1O (stereo partly drawn) ?
[out] not met
